subject-of-test: Disintegrin and metalloproteinase domain-containing protein 17 (Homo sapiens, UniProt P78536)
Sequence (P78536 whole entry, the tested form may be a part): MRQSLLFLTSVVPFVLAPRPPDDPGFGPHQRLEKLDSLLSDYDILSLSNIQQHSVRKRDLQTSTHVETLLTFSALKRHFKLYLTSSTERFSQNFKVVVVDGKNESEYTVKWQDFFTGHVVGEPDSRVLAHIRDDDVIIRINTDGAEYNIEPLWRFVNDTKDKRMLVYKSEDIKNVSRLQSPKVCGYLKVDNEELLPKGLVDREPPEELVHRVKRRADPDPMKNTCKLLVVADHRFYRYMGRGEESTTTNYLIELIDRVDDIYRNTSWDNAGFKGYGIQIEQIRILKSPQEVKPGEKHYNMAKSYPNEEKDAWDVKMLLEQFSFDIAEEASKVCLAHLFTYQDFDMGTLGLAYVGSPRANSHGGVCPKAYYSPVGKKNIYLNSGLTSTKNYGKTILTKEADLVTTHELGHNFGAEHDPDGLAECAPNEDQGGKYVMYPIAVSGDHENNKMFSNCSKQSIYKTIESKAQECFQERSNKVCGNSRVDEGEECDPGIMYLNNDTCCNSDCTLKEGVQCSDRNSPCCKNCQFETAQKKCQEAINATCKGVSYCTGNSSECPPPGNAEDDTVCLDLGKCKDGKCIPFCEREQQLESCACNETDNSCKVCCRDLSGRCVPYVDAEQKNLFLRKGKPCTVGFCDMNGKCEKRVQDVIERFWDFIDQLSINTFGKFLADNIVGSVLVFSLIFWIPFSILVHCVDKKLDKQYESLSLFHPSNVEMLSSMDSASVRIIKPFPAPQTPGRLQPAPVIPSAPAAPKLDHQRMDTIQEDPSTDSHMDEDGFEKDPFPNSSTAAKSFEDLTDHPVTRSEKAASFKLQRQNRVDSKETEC
procedure-text: Inhibition of Tumor necrosis factor-alpha (TNF-alpha) release in human whole blood
Assay type: functional, tissue-based
Reported IC50 is given for each of the following compounds.

{"structure-as-smiles": "Cc1ccccc1COc1ccc(S(=O)(=O)N2CCN(S(C)(=O)=O)[C@@H](C)[C@@H]2C(=O)NO)cc1", "IC50": "1000 nM"}
{"structure-as-smiles": "Cc1ccccc1COc1ccc(S(=O)(=O)N2CCN[C@@H](C)[C@@H]2C(=O)NO)cc1", "IC50": "2000 nM"}
{"structure-as-smiles": "CCOC(=O)N1CCN(S(=O)(=O)c2ccc(OCc3ccccc3C)cc2)[C@@H](C(=O)NO)[C@@H]1C", "IC50": "3000 nM"}
{"structure-as-smiles": "Cc1ccc(S(=O)(=O)N2CCN(S(=O)(=O)c3ccc(OCc4ccccc4C)cc3)[C@@H](C(=O)NO)[C@@H]2C)cc1", "IC50": "26000 nM"}
{"structure-as-smiles": "Cc1ccccc1COc1ccc(S(=O)(=O)N2CCN(C)[C@@H](C)[C@@H]2C(=O)NO)cc1", "IC50": "33000 nM"}
{"structure-as-smiles": "CC(=O)N1CCN(S(=O)(=O)c2ccc(OCc3cc(F)ccc3C)cc2)[C@@H](C(=O)NO)[C@@H]1C", "IC50": "1000 nM"}
{"structure-as-smiles": "COC(=O)N1CCN(S(=O)(=O)c2ccc(OCc3ccccc3C)cc2)[C@@H](C(=O)NO)[C@@H]1C", "IC50": "2000 nM"}
{"structure-as-smiles": "Cc1ccccc1COc1ccc(S(=O)(=O)N2CCN(C(=O)Nc3ccccc3)[C@@H](C)[C@@H]2C(=O)NO)cc1", "IC50": "12000 nM"}

* * *

subject-of-test: Disintegrin and metalloproteinase domain-containing protein 17 (Homo sapiens)
procedure-text: Inhibition of human recombinant tumor necrosis factor-alpha converting enzyme.

{"structure-as-smiles": "CC(=O)N1CCN(S(=O)(=O)c2ccc(OCc3cccnc3C)cc2)[C@@H](C(=O)NO)[C@@H]1C", "IC50, nM": 5}
{"structure-as-smiles": "COC(=O)N1CCN(S(=O)(=O)c2ccc(OCc3ccccc3C)cc2)[C@@H](C(=O)NO)[C@@H]1C", "IC50, nM": 14}
{"structure-as-smiles": "CCOC(=O)N1CCN(S(=O)(=O)c2ccc(OCc3ccccc3C)cc2)[C@@H](C(=O)NO)[C@@H]1C", "IC50, nM": 28}
